- system tested: GCS enzyme (glucosylceramide synthase) contained within Golgi preparations isolated from human A375 malignant melanoma skin cells (Homo sapiens (Human), UniProt Q16739)
- Sequence (Q16739 whole entry): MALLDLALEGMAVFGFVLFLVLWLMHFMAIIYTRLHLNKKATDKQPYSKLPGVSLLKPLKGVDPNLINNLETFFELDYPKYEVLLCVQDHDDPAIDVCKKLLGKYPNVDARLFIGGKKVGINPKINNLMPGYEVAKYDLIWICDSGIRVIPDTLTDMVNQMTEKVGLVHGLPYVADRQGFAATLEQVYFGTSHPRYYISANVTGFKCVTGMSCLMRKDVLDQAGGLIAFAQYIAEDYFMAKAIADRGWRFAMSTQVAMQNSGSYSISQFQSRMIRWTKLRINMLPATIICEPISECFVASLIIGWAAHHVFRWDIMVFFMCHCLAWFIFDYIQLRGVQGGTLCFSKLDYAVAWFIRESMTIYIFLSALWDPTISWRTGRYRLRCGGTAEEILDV
- procedure summary: UDP-Glo glucosylceramide synthase biochemical assay
- condition details: 1.5 μg crude golgi preparation from A375 cells; C6 ceramide and UDP-glucose at 2×Km; 20 h incubation at room temperature; UDP detected by luminescence
pEC50: −log10 of the molar value.
quantity kind: pEC50

compound	recorded result
CCOc1ccc(F)cc1-c1cccc2cc(C(=O)N[C@@H]3CC[C@H](O)C3)oc12	8.19
O=C(N[C@H]1CC[C@H](CO)CC1)c1cc2cc(F)cc(-c3ccccc3OCC(F)(F)F)c2o1	9.00
COc1ccc(C#N)cc1-c1cc(Cl)cc2cc(C(=O)N[C@@H]3CC[C@H](O)C3)oc12	9.77
COc1ccc(C#N)cc1-c1cccc2cc(C(=O)N[C@@H]3CC[C@H](O)C3)oc12	9.59
CCCOc1ccccc1-c1cccc2cc(C(=O)NC3CCNCC3(F)F)oc12 (single isomer, unassigned)	6.85

1 = O=C(NC1CNCCC1(F)F)c1nc2cccc(-c3ccccc3OCC(F)(F)F)c2o1 (racemic)
2 = Cc1nn(C)c(C)c1-c1cccc2cc(C(=O)Nc3ccc4cnccc4n3)oc12
3 = O=C(NC12CCC(O)(CC1)C2)c1cc2cccc(-c3cc(Cl)cnc3OC(F)F)c2o1
4 = CC(CO)C12CC(NC(=O)c3cc4cccc(-c5ccccc5OCC(F)(F)F)c4o3)(C1)C2 (racemic)
Qu. Please produce an ascending ranking of these compounds based on pEC50. Use the labels to give the requested order.
Ans. 1, 4, 3, 2
(1: 7.36, 4: 8.77, 3: 9.06, 2: 10.19)

* * *

- system tested: GCS enzyme (glucosylceramide synthase) contained within Golgi preparations isolated from human A375 malignant melanoma skin cells (Homo sapiens (Human), UniProt Q16739)
- procedure summary: UDP-Glo glucosylceramide synthase biochemical assay
- condition details: 1.5 μg crude golgi preparation from A375 cells; C6 ceramide and UDP-glucose at 2×Km; 20 h incubation at room temperature; UDP detected by luminescence
quantity kind: EC50 (nM)

compound	recorded result
C[C@]1(NC(=O)c2cc3cc(F)cc(-c4ccccc4OCC(F)(F)F)c3o2)CC[C@H](O)CC1 [Compound 27]	0.24

A = O=C(N[C@@H]1CNCC[C@H]1F)c1cc2cccc(-c3ccccc3OCC(F)(F)F)c2o1 (relative stereo) [Compound 15]
B = O=C(N[C@H]1CC[C@H](O)CC1)c1cc2cccc(-c3ccccc3OCC(F)(F)F)c2o1 [Compound 34]
C = O=C(NC1CNCCC1(F)F)c1cc2cccc(-c3ccccc3OCC(F)(F)F)c2o1 (racemic) [Compound 14]
Qu. Order the 3 compounds from highest to lowest EC50. Use the labels to give the requested order.
Ans. B, A, C

* * *

- system tested: GCS enzyme (glucosylceramide synthase) contained within Golgi preparations isolated from human A375 malignant melanoma skin cells (Homo sapiens (Human), UniProt Q16739)
- procedure summary: UDP-Glo glucosylceramide synthase biochemical assay
- condition details: 1.5 μg crude golgi preparation from A375 cells; C6 ceramide and UDP-glucose at 2×Km; 20 h incubation at room temperature; UDP detected by luminescence
pEC50: −log10 of the molar value.
quantity kind: pEC50

molecule	pEC50
O=C(Nc1cccnc1)c1cc2cccc(-c3ccccc3OCC(F)(F)F)c2o1	9.00
COc1ccc(C#N)cc1-c1cccc2cc(C(=O)NC34CCC(O)(CC3)C4)oc12	10.01
COc1ccc(Cl)cc1-c1cc(F)cc2cc(C(=O)N[C@H]3C[C@@H](CO)C3)oc12	9.22
O=C(Nc1ccc2cnccc2n1)c1cc2cccc(-c3ccccc3OCC(F)(F)F)c2o1	10.64
CCCOc1ccccc1-c1cccc2cc(C(=O)NC3CN4CCC3CC4)oc12 (racemic)	10.36

1 = CCCCOc1ccccc1-c1cccc2cc(C(=O)NC(C)(C)CO)oc12
2 = COc1ncc(C#N)cc1-c1cccc2cc(C(=O)NC34CCC(O)(CC3)C4)oc12
3 = N#Cc1ccc(Cl)c(-c2cccc3cc(C(=O)N[C@@H]4CC[C@H](O)C4)oc23)c1
4 = COCCOc1ccccc1-c1cccc2cc(C(=O)Nc3cccnc3)oc12
5 = COc1ccc(F)c(F)c1-c1cccc2cc(C(=O)N[C@@H]3CC[C@H](O)C3)oc12
Qu. Please produce an ascending ranking of these molecules based on pEC50. Use the labels to give the requested order.
Ans. 4, 1, 5, 2, 3
(4: 7.03, 1: 7.55, 5: 8.47, 2: 9.10, 3: 10.33)

I = COc1ncc(Cl)cc1-c1cccc2cc(C(=O)NC34CCC(O)(CC3)C4)oc12
II = Cc1cccc(NC(=O)c2cc3cccc(-c4c(C)nn(C)c4C)c3o2)n1
Qu. Between these two entries, I and II , state which has the higher pEC50. Return value: the label identifying the chosen record.
Ans. I

1 = N#Cc1ccc(OC(F)F)c(-c2cccc3cc(C(=O)NC45CCC(O)(CC4)C5)oc23)c1
2 = N#Cc1ccc(F)c(-c2cccc3cc(C(=O)N[C@@H]4CC[C@H](O)C4)oc23)c1
3 = O=C(NC12CCC(CO)(CC1)CC2)c1cc2cc(F)cc(-c3ccccc3OCC(F)(F)F)c2o1
Qu. Order the 3 molecules from highest to lowest pEC50. Use the labels to give the requested order.
Ans. 1, 3, 2
(1: 10.00, 3: 9.05, 2: 8.30)
